- Test system: Fibroblast
- Assay: Multiplex assay against human fibroblast
- Type: toxicity, cell-based
- Condition Summary: 12 h, 1 µM, compound concentration 1 uM, replicate 1
Parameter: Population Pyknosed Nuclei (%). Scope: all listed entries.
Quantity Measured: Population Pyknosed Nuclei (%)

- CC[C@H]1OC(=O)[C@H](C)[C@@H](O[C@H]2C[C@@](C)(OC)[C@@H](O)[C@H](C)O2)[C@H](C)[C@@H](O[C@@H]2O[C@H](C)C[C@H](N(C)C)[C@H]2O)[C@@]2(C)CC(C)=C(O2)[C@H](C)[C@@H](O)[C@]1(C)O: 13
- C[C@H](NC(=O)c1c(C(F)F)nn(C)c1Oc1cccc(C(F)(F)F)c1)c1ccc(C(=O)O)cc1 [PALUPIPRANT]: 12
- O=C(O)Cc1ccccc1Nc1c(Cl)cccc1Cl [DICLOFENAC]: 17
- Cc1ccccc1C(=O)Nc1ccc(C(=O)N2CCCC(N(C)C)c3ccccc32)cc1.Cl (stereo not drawn): 12
- CN1CCN2c3ncccc3Cc3ccccc3C2C1 (stereo not drawn) [MIRTAZAPINE]: 12
- COc1cc(NC(=O)CCN2CCC(OC(=O)Nc3ccccc3-c3ccccc3)CC2)c(Cl)cc1CNC[C@H](O)c1ccc(O)c2[nH]c(=O)ccc12 [BATEFENTEROL]: 15
- O=C(NCCO)c1cccc(-c2cc(Nc3ccc(OC(F)(F)F)cc3)ncn2)c1: 24
- Cc1nc2ccc(Oc3ccc(F)cc3)cc2c(=O)n1C[C@H]1CCCN(C(C)C)C1.Cl: 13

----------
- Tested on: Fibroblast
- Assay: Multiplex assay against human fibroblast
- Format: toxicity, cell-based
- Condition Summary: 24 h, 1 µM, compound concentration 1 uM, replicate 1
Quantity Measured: Population Normal (%)

* O=C(O)c1cc2ccccc2c(Cc2c(O)c(C(=O)O)cc3ccccc23)c1O | 96
* Cc1ccc(/C(=C\CN2CCCC2)c2ccccn2)cc1 | 95
* Cc1ccc(C(C)(O)c2nc3ccccc3s2)c(C)c1 (stereo not drawn) | 99
* O=C(NCC(=O)N1CC[C@H](N[C@H]2CC[C@@](O)(c3ccc(-c4ncccn4)cn3)CC2)C1)c1cccc(C(F)(F)F)c1 | 97
* CC[C@H]1OC(=O)[C@H](C)[C@@H](O[C@H]2C[C@@](C)(OC)[C@@H](O)[C@H](C)O2)[C@H](C)[C@@H](O[C@@H]2O[C@H](C)C[C@H](N(C)C)[C@H]2O)[C@@]2(C)CC(C)=C(O2)[C@H](C)[C@@H](O)[C@]1(C)O | 95
* O=C(O)Cc1ccccc1Nc1c(Cl)cccc1Cl | 97
* CN(C)c1ccnc2sc3c(=O)n(N4CCCCCC4)cnc3c12 | 96
* CCOc1c2c(c(OCC)c3ncccc13)CN(c1ccc(CS(=O)(=O)NC(=O)Cc3ccccc3OC)cc1C)C2=O | 96

----------
- Test system: Fibroblast
- Assay: Multiplex assay against human fibroblast
- Type: toxicity, cell-based
- Condition Summary: 24 h, 10 µM, compound concentration 10 uM, replicate 1
Record 1.0 whenever Population Tubulin-Different-Phenotype (%) is at 30% or higher; record 0.0 when lower.

* CC1(COc2ccc3c(c2)ncn3-c2ccc3cccc(N4CCC(N)CC4)c3n2)COC1 [CRENOLANIB] | 0.0
* COc1cc(C(=O)N(CCCc2ccccc2)Cc2ccc(CC(=O)O)cc2)cc(OC)c1C | 0.0
* O=C(NCC(=O)N1CC[C@H](N[C@H]2CC[C@@](O)(c3ccc(-c4ncccn4)cn3)CC2)C1)c1cccc(C(F)(F)F)c1 [PF-4136309] | 1.0
* CCNC1(C(N)=O)CCN(c2ncnc3c2nc(-c2ccccc2Cl)n3-c2ccc(Cl)cc2)CC1 [OTENABANT] | 1.0
* Cc1nc2ccc(Oc3ccc(F)cc3)cc2c(=O)n1C[C@H]1CCCN(C(C)C)C1.Cl | 1.0
* O=C(NCCO)c1cccc(-c2cc(Nc3ccc(OC(F)(F)F)cc3)ncn2)c1 | 1.0
* O=C(O)c1cc2ccccc2c(Cc2c(O)c(C(=O)O)cc3ccccc23)c1O [PAMOIC ACID] | 0.0
* CCCN1CCC[C@@H]2Cc3n[nH]cc3C[C@H]21.Cl [QUINPIROLE HYDROCHLORIDE] | 1.0
